System: A2780
Experiment: Cytotoxicity against human A2780 cells
Assay type: functional, cell-based
READOUT LABEL: pIC50
pIC50 (log units): -log10 of the concentration in mol/L.

Kindly note the recorded pIC50 for C=C1CCC[C@H]2[C@](C)(CC3=C(O)C(=O)C=C(OC)C3=O)[C@@H](C)CC[C@]12C , which is 4.96
